# Read-out: xenobiotic metabolism (CYP1A2), CYP1A2 (gene 1544)
# procedure summary: CLD_CYP1A2_48hr: CellzDirect (CLD) Gene Expression Assay for xenobiotic metabolism (CYP1A2) at 48 hours (AID 2283703)
Records with an inconclusive call do not appear. Activity calls are given as the source filed them. How the source made its calls: active means hit-call score of the fitted dose curve at least 0.9, where 1 is the maximum; inconclusive means response in the unintended direction; inactive means score below 0.9.
Outcome codes: class 1 = active, class 0 = inactive

molecule	group
O=C(O)COc1ccc(Cl)cc1Cl	class 0
CCOc1nc(NC)nc(NC(=O)NS(=O)(=O)c2ccccc2C(=O)OC)n1	class 1
CCc1ccc(C(=O)NN(C(=O)c2cc(C)cc(C)c2)C(C)(C)C)cc1	class 1
O=C(NC(=O)c1c(F)cccc1F)Nc1ccc(OC(F)(F)C(F)OC(F)(F)F)c(Cl)c1 (stereo not drawn)	class 0
Cc1cc(C)nc(NC(=O)NS(=O)(=O)c2ccccc2C(=O)OC2COC2)n1	class 0
CN1CSC(=S)N(C)C1	class 0
CC(C)N(C(=O)COc1nnc(C(F)(F)F)s1)c1ccc(F)cc1	class 0
C[C@H]1[C@H](c2ccc(Cl)cc2)SC(=O)N1C(=O)NC1CCCCC1	class 1
[2H]C1([2H])[n+]2ccccc2-c2cccc[n+]2C1([2H])[2H]	class 0
CCN(CC)C(=O)SCc1ccc(Cl)cc1	class 0
COC(=O)c1ccccc1S(=O)(=O)NC(=O)Nc1nc(C)nc(OC)n1	class 0
CCOCN(C(=O)CCl)c1c(C)cccc1CC	class 0
CCS(=O)(=O)c1cccnc1S(=O)(=O)NC(=O)Nc1nc(OC)cc(OC)n1	class 0
CC(C)(C)C(O)C(Oc1ccc(Cl)cc1)n1cncn1 (stereo not drawn)	class 1
CC(C)(C)C(O)/C(=C\c1ccc(Cl)cc1Cl)n1cncn1 (stereo not drawn)	class 1
CCC(C)Nc1c([N+](=O)[O-])cc(C(C)(C)C)cc1[N+](=O)[O-] (stereo not drawn)	class 1
O=C(O)C(F)(F)C(F)(F)C(F)(F)C(F)(F)C(F)(F)C(F)(F)C(F)(F)F	class 0
CC1(C)C(C=C(Cl)Cl)C1C(=O)OC(C#N)c1ccc(F)c(Oc2ccccc2)c1 (stereo not drawn)	class 0
O=[N+]([O-])c1c(Cl)c(Cl)c(Cl)c(Cl)c1Cl	class 1
COc1cc(OC)nc(NC(=O)NS(=O)(=O)c2cc(NC=O)ccc2C(=O)N(C)C)n1	class 0
CCCN(CCOc1c(Cl)cc(Cl)cc1Cl)C(=O)n1ccnc1	class 1
CC(C)OC(=O)Nc1cccc(Cl)c1	class 1
Oc1cc(Cl)ccc1Oc1ccc(Cl)cc1Cl	class 0

----------
# Read-out: Caspase-3 (Homo sapiens)
# procedure summary: LTEA_HepaRG_CASP3: Life Technologies and Expression Analysis (LTEA) Assay for cysteine-aspartic acid protease (CASP3) using HepaRG (AID 2283477)
# condition notes: mRNA level, 48 h; actives raise or lower the signal
# Procedure: LTEA_HepaRG is a cell based, multiplexed-readout assay that uses HepaRG, a human liver cell line, with measurements taken at 48 hours after chemical dosing on a 96-well plate.LTEA_HepaRG_CASP3 is one of 102 assay component(s) measured in the LTEA HepaRG cell culture assay. It is a marker of Cell proliferation, survival, death.Data from the assay component LTEA_HepaRG_CASP3 was analyzed into 1 endpoint. […]
Calls of active or inactive are those of the source. Rule for the calls: active = hit-call score of the fitted dose curve at least 0.9, where 1 is the maximum; inactive = score below 0.9.
Outcome codes: active, inactive

compound	group
CCN(CC)C(=O)SCc1ccc(Cl)cc1	inactive
CCc1ccc(C(=O)NN(C(=O)c2cc(C)cc(C)c2)C(C)(C)C)cc1	inactive
O=C(NC(=O)c1c(F)cccc1F)Nc1ccc(OC(F)(F)C(F)OC(F)(F)F)c(Cl)c1 (stereo not drawn)	inactive
O=C(O)COc1ccc(Cl)cc1Cl	inactive
CNC(=O)Oc1cccc(N=CN(C)C)c1	inactive
O=[N+]([O-])/N=C1\NCCN1Cc1ccc(Cl)nc1	active
N#CN	inactive
CCCN(CCOc1c(Cl)cc(Cl)cc1Cl)C(=O)n1ccnc1	inactive
COP(=S)(OC)Oc1ccc([N+](=O)[O-])cc1	inactive
CC(C)(C)C(O)C(Oc1ccc(Cl)cc1)n1cncn1 (stereo not drawn)	inactive
OCCOc1ccccc1	inactive
CNC(=O)Oc1ccccc1OC(C)C	inactive
O=C(O)C(F)(F)C(F)(F)C(F)(F)C(F)(F)C(F)(F)C(F)(F)C(F)(F)F	inactive
